Would you kindly list apparent Kd (screen) for each of these binders?
- Tgt: T1, TNFR1 (Homo sapiens, UniProt P19438)
- T1 chain: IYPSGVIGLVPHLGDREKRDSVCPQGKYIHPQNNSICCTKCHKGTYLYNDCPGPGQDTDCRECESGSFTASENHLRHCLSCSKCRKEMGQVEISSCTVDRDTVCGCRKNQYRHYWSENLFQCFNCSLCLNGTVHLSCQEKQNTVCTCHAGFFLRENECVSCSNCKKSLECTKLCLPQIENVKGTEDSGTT
- Assay text: yeast display SC50
Numbers only, in nM.

E72V (designed binder) SMEEEVEKAAKEYEKKKKEAIEKHLEKLKAKDKEAAERFLKELEEAAKEYAKDEAKTMSEEEAKRRAKKYKVKVLLSELSEEEQKEIKEAEEKLVRTILKYVEEAAK: 1.27

Would you kindly look at the next entry?
[Q] Fill in the blank: the reported apparent Kd (screen) of H24C (designed binder) SMEEEVEKAAKEYEKKKKEAIEKCLEKLKAKDKEAAERFLKELEEAAKEYAKDEAKTMSEEEAKRRAKKYKEKVLLSELSEEEQKEIKEAEEKLVRTILKYVEEAAK is ____.
[A] 0.446

Reference source: paper PMC12416549
